Tested on: Human alphaherpesvirus 3
Assay: Antiviral activity against TK- VZV 07 in HEL cells after 5 days
Assay type: functional, organism-based
Details: Human alphaherpesvirus 3, 07, HEL, 120 h
Exercise: for every item that follows, state its recorded EC50.

O=c1[nH]c(=O)n([C@H]2C[C@H](O)[C@@H](CO)O2)cc1/C=C/Br :: > 200 µM

Would you mind telling me what EC50 value was observed for CCCCCc1ccc(-c2cc3cn([C@@H]4C[C@H](CO)[C@@H](O)C4)c(=O)nc3o2)cc1 ? > 50 µM

----------
Assay: Cytotoxicity against HEL cells
Assay type: cell-based
Details: human
Reported Endpoint: CC50

Could I get CC50 for every one of these entries?
1. CCCCCc1ccc(-c2cc3cn([C@@H]4C[C@H](CO)[C@@H](O)C4)c(=O)nc3o2)cc1
2. O=c1[nH]c(=O)n([C@H]2C[C@H](O)[C@@H](CO)O2)cc1/C=C/Br
3. Nc1nc2c(ncn2COCCO)c(=O)[nH]1

1. > 50 µM
2. > 200 µM
3. > 200 µM
